Source listed as patent US8435939B2.

Tested on: human peripheral blood mononuclear cells (PBMC)
Assay: Cytotoxicity Test II: human PBMC, trypan blue dyeing method
Format: cell-based
Settings: selective index, PBMC CC50 over anti-HIV EC50
Where a SMILES comes first, the peptide text is derived from it. Bridges are numbered along the chain shown (N, C = ends). [ ]: non-standard residue; d: D form. 2Nal = N[C@@H](Cc1ccc2ccccc2c1)C(=O)O; Cit = NC(=O)NCCC[C@H](N)C(=O)O
Reported SI: CC50 (Test II)/EC50 values follow for various compounds
RECORDED METRIC: SI: CC50 (Test II)/EC50

COMPOUND | TARGET OR TEST SYSTEM | RECORDED METRIC | VALUE RELATION SIGN | MEASURED RESULT
NCCCC[C@@H]1NC(=O)[C@H](CCCN=C(N)N)NC(=O)[C@H](Cc2ccc(O)cc2)NC(=O)[C@@H](NC(=O)[C@H](Cc2ccc3ccccc3c2)NC(=O)[C@H](CCCN=C(N)N)NC(=O)[C@@H](N)CCCN=C(N)N)CSSC[C@@H](C(=O)N[C@@H](CCCN=C(N)N)C(=O)O)NC(=O)[C@H](CCCNC(N)=O)NC(=O)[C@H](CCCNC(N)=O)NC(=O)[C@H](Cc2ccc(O)cc2)NC(=O)[C@@H]2CCCN2C(=O)[C@@H](CCCCN)NC1=O [TC14006] (H-RR[2Nal]CYRK[dK]PY[Cit][Cit]CR-OH; disulfide 4-13) | human peripheral blood mononuclear cells (PBMC) | SI: CC50 (Test II)/EC50 | = | 20000
NCCCC[C@@H]1NC(=O)[C@H](CCCN=C(N)N)NC(=O)[C@H](Cc2ccc(O)cc2)NC(=O)[C@@H](NC(=O)[C@H](Cc2ccc3ccccc3c2)NC(=O)[C@H](CCCN=C(N)N)NC(=O)[C@@H](N)CCCN=C(N)N)CSSC[C@@H](C(=O)N[C@@H](CCCN=C(N)N)C(=O)O)NC(=O)[C@H](CCCNC(N)=O)NC(=O)[C@H](CCCN=C(N)N)NC(=O)[C@H](Cc2ccc(O)cc2)NC(=O)[C@@H]2CCCN2C(=O)[C@@H](CCCCN)NC1=O [Compound T140, reference compound] (H-RR[2Nal]CYRK[dK]PYR[Cit]CR-OH; disulfide 4-13) | human peripheral blood mononuclear cells (PBMC) | SI: CC50 (Test II)/EC50 | = | 29000
NCCCC[C@@H]1NC(=O)[C@H](CCCN=C(N)N)NC(=O)[C@H](Cc2ccc(O)cc2)NC(=O)[C@@H](NC(=O)[C@H](Cc2c[nH]c3ccccc23)NC(=O)[C@H](CCCN=C(N)N)NC(=O)[C@@H](N)CCCN=C(N)N)CSSC[C@@H](C(=O)N[C@@H](CCCN=C(N)N)C(=O)O)NC(=O)[C@H](CCCNC(N)=O)NC(=O)[C@H](CCCN=C(N)N)NC(=O)[C@H](Cc2ccc(O)cc2)NC(=O)[C@@H]2CCCN2C(=O)[C@@H](CCCCN)NC1=O [Compound T134, reference compound] (H-RRWCYRK[dK]PYR[Cit]CR-OH; disulfide 4-13) | human peripheral blood mononuclear cells (PBMC) | SI: CC50 (Test II)/EC50 | = | 23000
NCCCC[C@@H]1NC(=O)[C@H](CCCN=C(N)N)NC(=O)[C@H](Cc2ccc(O)cc2)NC(=O)[C@@H](NC(=O)[C@H](Cc2ccc3ccccc3c2)NC(=O)[C@H](CCCN=C(N)N)NC(=O)[C@@H](N)CCCN=C(N)N)CSSC[C@@H](C(=O)N[C@@H](CCCN=C(N)N)C(=O)O)NC(=O)[C@H](CCCNC(N)=O)NC(=O)[C@H](CCCN=C(N)N)NC(=O)[C@H](Cc2ccc(O)cc2)NC(=O)[C@@H]2CCCN2C(=O)[C@@H](CCCNC(N)=O)NC1=O | human peripheral blood mononuclear cells (PBMC) | SI: CC50 (Test II)/EC50 | = | 69000
Cc1cn([C@H]2C[C@H](N=[N+]=[N-])[C@@H](CO)O2)c(=O)[nH]c1=O [AZT, 3′-azido-2′,3′-dideoxythymidine, reference compound] | human peripheral blood mononuclear cells (PBMC) | SI: CC50 (Test II)/EC50 | < | 410
NCCCC[C@H]1NC(=O)[C@H](CCCNC(N)=O)NC(=O)[C@H](CCCN=C(N)N)NC(=O)[C@H](Cc2ccc(O)cc2)NC(=O)[C@@H](NC(=O)[C@H](Cc2ccc3ccccc3c2)NC(=O)[C@H](CCCN=C(N)N)NC(=O)[C@@H](N)CCCN=C(N)N)CSSC[C@@H](C(=O)N[C@@H](CCCN=C(N)N)C(=O)O)NC(=O)[C@H](CCCNC(N)=O)NC(=O)[C@H](CCCN=C(N)N)NC(=O)[C@H](Cc2ccc(O)cc2)NC(=O)[C@@H]2CCCN2C1=O [TC14004] (H-RR[2Nal]CYR[Cit][dK]PYR[Cit]CR-OH; disulfide 4-13) | human peripheral blood mononuclear cells (PBMC) | SI: CC50 (Test II)/EC50 | = | 16000
NCCCC[C@@H]1NC(=O)[C@H](CCCNC(N)=O)NC(=O)[C@H](Cc2ccc(O)cc2)NC(=O)[C@@H](NC(=O)[C@H](Cc2ccc3ccccc3c2)NC(=O)[C@H](CCCN=C(N)N)NC(=O)[C@@H](N)CCCN=C(N)N)CSSC[C@@H](C(=O)N[C@@H](CCCN=C(N)N)C(=O)O)NC(=O)[C@H](CCCNC(N)=O)NC(=O)[C@H](CCCN=C(N)N)NC(=O)[C@H](Cc2ccc(O)cc2)NC(=O)[C@@H]2CCCN2C(=O)[C@@H](CCCCN)NC1=O [TC14003] (H-RR[2Nal]CY[Cit]K[dK]PYR[Cit]CR-OH; disulfide 4-13) | human peripheral blood mononuclear cells (PBMC) | SI: CC50 (Test II)/EC50 | = | 160000
